Target desc: AMH-R2 (Homo sapiens)
Construct: GST
Sequence (Q16671 18-573): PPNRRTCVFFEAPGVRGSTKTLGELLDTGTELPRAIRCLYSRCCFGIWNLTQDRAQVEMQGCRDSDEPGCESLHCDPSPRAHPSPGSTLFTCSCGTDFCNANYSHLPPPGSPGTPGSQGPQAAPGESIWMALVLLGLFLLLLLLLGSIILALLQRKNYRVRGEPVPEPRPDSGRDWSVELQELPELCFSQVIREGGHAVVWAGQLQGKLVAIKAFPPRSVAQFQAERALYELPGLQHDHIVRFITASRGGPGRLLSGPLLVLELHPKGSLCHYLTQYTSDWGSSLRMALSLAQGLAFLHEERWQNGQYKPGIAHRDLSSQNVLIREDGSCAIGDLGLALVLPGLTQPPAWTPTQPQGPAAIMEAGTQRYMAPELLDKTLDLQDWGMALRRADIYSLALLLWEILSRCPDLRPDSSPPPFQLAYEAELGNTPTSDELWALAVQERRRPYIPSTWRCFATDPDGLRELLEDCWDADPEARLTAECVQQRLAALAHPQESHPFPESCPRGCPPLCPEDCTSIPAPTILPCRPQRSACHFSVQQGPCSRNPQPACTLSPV
Assay notes: peptide microarray assay identifying AMH receptor binding peptides
Study conditions: microarray signal, replicate 1
Square brackets hold non-standard residues; d marks the D form. Ends that are not written are not given here.

- Substance: "YGFPSArVNrYwNrHDa (YGFPSA[dR]VN[dR]Y[dW]N[dR]HD[dA]) [SEQ ID NO: 16]"
  Target desc: "AMH-R2 (Homo sapiens)"
  Rep 1: 60363
- Substance: "EGlQSSAYNNYwrklVa (EG[dL]QSSAYNNY[dW][dR][dK][dL]V[dA]) [SEQ ID NO: 17]"
  Target desc: "AMH-R2 (Homo sapiens)"
  Rep 1: 60241
- Substance: "VGwSFAPNGYrlSGVlG (VG[dW]SFAPNGY[dR][dL]SGV[dL]G) [SEQ ID NO: 9]"
  Target desc: "AMH-R2 (Homo sapiens)"
  Rep 1: 65176
- Substance: "rGrSQAYNErSGValSG ([dR]G[dR]SQAYNE[dR]SGV[dA][dL]SG) [SEQ ID NO: 10]"
  Target desc: "AMH-R2 (Homo sapiens)"
  Rep 1: 63931
- Substance: "rGSYSNlFANSGErVGV ([dR]GSYSN[dL]FANSGE[dR]VGV) [SEQ ID NO: 13]"
  Target desc: "AMH-R2 (Homo sapiens)"
  Rep 1: 63996
- Substance: "FNGPSArNFYrHDVaVS (FNGPSA[dR]NFY[dR]HDV[dA]VS) [SEQ ID NO: 14]"
  Target desc: "AMH-R2 (Homo sapiens)"
  Rep 1: 65284
- Substance: "kGGYSNAYkHNPrVlGS ([dK]GGYSNAY[dK]HNP[dR]V[dL]GS) [SEQ ID NO: 7]"
  Target desc: "AMH-R2 (Homo sapiens)"
  Rep 1: 65521
- Substance: "GSwSGAHNFrkSGVlSG (GS[dW]SGAHNF[dR][dK]SGV[dL]SG) [SEQ ID NO: 11]"
  Target desc: "AMH-R2 (Homo sapiens)"
  Rep 1: 65128
- Substance: "VGPSVAYNYrVSGValG (VGPSVAYNY[dR]VSGV[dA][dL]G) [SEQ ID NO: 6]"
  Target desc: "AMH-R2 (Homo sapiens)"
  Rep 1: 65462
- Substance: "GlQwSFANGQwrGalSG (G[dL]Q[dW]SFANGQ[dW][dR]G[dA][dL]SG) [SEQ ID NO: 12]"
  Target desc: "AMH-R2 (Homo sapiens)"
  Rep 1: 64623

meta.source: patent US12662542B2
